Hi there, I'd appreciate the recorded IC50 for every entry that follows.
- ASSAY SYSTEM: IL-17A/A (Homo sapiens)
- Sequence (Q16552 24-155): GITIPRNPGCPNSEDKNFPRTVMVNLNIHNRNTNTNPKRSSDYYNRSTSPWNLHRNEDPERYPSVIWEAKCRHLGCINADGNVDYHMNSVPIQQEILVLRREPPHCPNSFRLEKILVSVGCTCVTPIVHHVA
- MEASUREMENT NOTES: IL-17A/A HEK-Blue Cell Assay
- Type: cell-based
- TEST CONTEXT: HEK-Blue IL-17 reporter cells, IL-17A/A stimulation, 20 hours, SEAP readout; read-out: IL17 AA HEK-5 pIC50 (converted)

| MOLECULE | IC50 |
| --- | --- |
| CCC(=O)N[C@@H](C(=O)N1CCN(C)[C@H](C)C1)[C@@H](C)c1ccc(NC(=O)[C@@H](NC(=O)c2ccnn2CC(F)(F)F)C(C2CC2)C2CC2)c(F)c1 | 10 to 100 nM |
| CCOC(=O)N(C)[C@@H](C)C(=O)N[C@@H](C(=O)N1CCN(C)CC1)[C@@H](C)c1ccc(NC(=O)[C@@H](NC(=O)c2ccnn2CC)C(C2CC2)C2CC2)c(F)c1 | < 10 nM |
| CCC(=O)N[C@@H](C(=O)N1CCOCC1)[C@@H](C)c1ccc(NC(=O)[C@@H](NC(=O)c2ccnn2CCF)C(C2CC2)C2CC2)c(F)c1 | 10 to 100 nM |
| CCn1nccc1C(=O)N[C@H](C(=O)Nc1ccc([C@H](C)[C@@H](NC(=O)[C@H](C)OC)C(=O)N2CCN(C)[C@H](C)C2)cc1F)C(C1CC1)C1CC1 | < 10 nM |

Item CO[C@@H](C)C(=O)N[C@@H](C(=O)N1CCNC(CF)C1)[C@@H](C)c1ccc(NC(=O)[C@@H](NC(=O)C2(F)CC2)C(C2CC2)C2CC2)c(F)c1 (single isomer, unassigned) was tested on IL-17A/A (Homo sapiens); the reported IC50 is 10 to 100 nM
